# TARGET: T1, RRM1 analog F70A (Homo sapiens, UniProt Q8IUH3 23-202, F70A;F124A;Y165A)
# T1 sequence: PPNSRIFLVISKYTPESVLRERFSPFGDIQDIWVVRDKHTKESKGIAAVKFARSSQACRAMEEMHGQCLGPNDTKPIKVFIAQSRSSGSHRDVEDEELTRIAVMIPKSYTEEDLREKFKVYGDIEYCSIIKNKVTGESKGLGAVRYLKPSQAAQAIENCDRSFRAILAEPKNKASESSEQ
# MEASUREMENT_NOTES: fluorescence polarization
QUANTITY_MEASURED: pKd
When answering, recall that pKd equals minus log10 of the concentration in mol/L, and write that number alone.

Query :: Tell me the measured pKd of GGACGG (ssRNA) [GGACGG RNA] , please.
Result :: 4.77
